assay_system: Ratio of Nucleoli Translocation and Cytoplasm, AR (gene 367) (UniProt P10275)
Sequence (P10275 whole entry, looked up): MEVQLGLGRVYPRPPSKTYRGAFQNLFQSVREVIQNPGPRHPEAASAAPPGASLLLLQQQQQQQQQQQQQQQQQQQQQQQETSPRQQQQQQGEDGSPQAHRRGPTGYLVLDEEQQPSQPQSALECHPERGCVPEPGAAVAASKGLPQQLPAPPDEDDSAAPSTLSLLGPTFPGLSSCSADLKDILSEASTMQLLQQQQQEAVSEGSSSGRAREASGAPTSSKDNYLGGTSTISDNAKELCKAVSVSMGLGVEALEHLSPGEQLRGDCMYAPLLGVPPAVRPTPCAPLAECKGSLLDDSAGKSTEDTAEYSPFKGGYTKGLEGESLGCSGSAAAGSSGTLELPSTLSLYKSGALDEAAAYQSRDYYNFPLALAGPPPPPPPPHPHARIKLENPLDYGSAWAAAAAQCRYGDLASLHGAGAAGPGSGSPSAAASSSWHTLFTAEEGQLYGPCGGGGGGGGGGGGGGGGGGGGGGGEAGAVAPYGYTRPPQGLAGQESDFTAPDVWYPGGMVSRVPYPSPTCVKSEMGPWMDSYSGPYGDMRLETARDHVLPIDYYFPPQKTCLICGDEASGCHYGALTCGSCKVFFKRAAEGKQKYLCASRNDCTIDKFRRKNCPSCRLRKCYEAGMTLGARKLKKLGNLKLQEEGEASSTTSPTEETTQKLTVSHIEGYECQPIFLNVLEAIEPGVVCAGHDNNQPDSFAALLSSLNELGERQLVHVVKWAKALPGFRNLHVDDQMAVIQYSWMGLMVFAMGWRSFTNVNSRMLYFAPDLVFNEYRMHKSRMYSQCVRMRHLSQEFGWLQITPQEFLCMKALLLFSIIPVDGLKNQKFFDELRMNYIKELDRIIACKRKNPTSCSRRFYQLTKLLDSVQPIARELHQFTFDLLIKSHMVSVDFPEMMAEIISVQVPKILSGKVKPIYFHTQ
protocol_description: UPITT_HCI_U2OS_AR_TIF2_Nucleoli_Cytoplasm_Ratio_Agonist: University of Pittsburgh U2OS Androgen Receptor-Transcriptional Intermediary Factor 2 (AR-TIF2) Agonism High Content Imaging Assay for Ratio of Nucleoli Translocation and Cytoplasm (AID 2284000);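 also: hits raise the red nucleolar to cytoplasm ratio above vehicle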
From the text: UPITT_AR_TIF2_PPIB is a cell-based, high-content imaging assay that uses U2OS, a human osteosarcoma cell line, expressing a human androgen receptor fused to red fluorescent protein and the coactivator TIF2 fused to green fluorescent protein. UPITT_HCI_U2OS_AR_TIF2_Nucleoli_Cytoplasm_Ratio_Agonist is one of four assay components measured from the UPITT_AR_TIF2_PPIB assay. […]
Results filed as inconclusive are left out. Active and inactive are the calls of the source. The calls were made as follows: active = hit-call score of the fitted dose curve at least 0.9, where 1 is the maximum; inconclusive = response in the unintended direction; inactive = score below 0.9.
Respond only with the outcome that fits, drawn from active, inactive

Examples from the recorded data:
compound=CCN=C1C=CC(=C(c2ccc(N(CC)CC)cc2)c2ccc(N(CC)CC)cc2)c2ccccc21 answer_label=inactive
compound=CCCCCCCCCc1ccc(OCCO)cc1 answer_label=active
compound=F[Si-2](F)(F)(F)(F)F answer_label=inactive
compound=CCCCCCCCCCCCC[N+](C)(C)Cc1ccccc1 answer_label=inactive
compound=O=C1C=CC(=O)N1c1ccccc1 answer_label=inactive
compound=CCc1ccc(C)nc1 answer_label=inactive

Could you check what this test reported for "CC1CCCCC1" ?
inactive

Could you check what this test reported for CCCCCCCC/C=C\CCCCCCCC(=O)OCC(O)CO (centres undefined) ?
inactive

Could you check what this test reported for "CCN=c1cc2oc3cc(NCC)c(C)cc3c(-c3ccccc3C(=O)OCC)c-2cc1C" ?
active

###

protocol_description: Tanguay_ZF_120hpf_BRN: Oregon State University Tanguay Lab 120 Hour Post-fertilization zebrafish Assay for Brain Region Malformation (AID 2284402)
Active and inactive are the calls of the source. The calls were made as follows: active = hit-call score of the fitted dose curve at least 0.9, where 1 is the maximum; inactive = score below 0.9.
measurement_name: outcome

compound=O=C(O)C(F)(F)C(F)(F)C(F)(F)C(=O)O obs_value=inactive
compound="OCC(O)CC(F)(F)C(F)(F)C(F)(F)C(F)(F)C(F)(F)C(F)(F)C(F)(F)C(F)(F)F (stereo not given)" obs_value=inactive
compound=O=C(O)CCC(F)(F)C(F)(F)C(F)(F)C(F)(F)C(F)(F)C(F)(F)C(F)(F)F obs_value=inactive
compound=OCCCCC(F)(F)C(F)(F)C(F)(F)C(F)(F)F obs_value=inactive

Would you kindly look at the next entry?
Supply reported outcome belonging to this compound: "O=C(O)C(F)(F)C(F)(F)C(F)(F)OC(F)(C(F)(F)F)C(F)(F)F"
inactive

###

Read-out: Vascular cell adhesion molecule 1 (VCAM1), VCAM1 (gene 7412)
protocol_description: BSK_CASM3C_VCAM1: BioMAP Diversity Plus: CASM3C Assay for Vascular cell adhesion molecule 1 (VCAM1) Biomarker Activity (AID 2283055);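 also: VCAM-1 protein level quantified by ELISA on the cells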
stated_conditions: primary human coronary artery smooth muscle cells; actives raise or lower the signal
Active and inactive are the calls of the source. How the source made its calls: active means hit-call score of the fitted dose curve at least 0.9, where 1 is the maximum; inactive means score below 0.9.
measurement_name: AC50

compound=NC(=O)C(F)(F)C(F)(F)C(F)(F)C(F)F measurement_name=AC50 obs_value=inactive
compound=O=C(O)C(F)(F)C(F)(F)C(F)(F)OC(F)(F)F measurement_name=AC50 obs_value=inactive
compound=Cc1ccc(S(=O)(=O)C(I)I)cc1 measurement_name=AC50 obs_value="2460 nM (active)"

###

Read-out: Interleukin-6 (IL6), IL6 (gene 3569)
protocol_description: BSK_CASM3C_IL6: BioMAP Diversity Plus: CASM3C Assay for Interleukin-6 (IL6) Biomarker Activity for (AID 2283040)
stated_conditions: primary human coronary artery smooth muscle cells; actives raise or lower the signal
Calls of active or inactive are those of the source. How the source made its calls: active means hit-call score of the fitted dose curve at least 0.9, where 1 is the maximum; inactive means score below 0.9.
measurement_name: AC50

Previously resolved entries follow.
compound=O=S(=O)(O)CCC(F)(F)C(F)(F)C(F)(F)C(F)(F)C(F)(F)C(F)(F)C(F)(F)C(F)(F)F obs_value=inactive
compound=OCCCCC(F)(F)C(F)(F)C(F)(F)C(F)(F)F obs_value=inactive
compound=O=C(O)C(F)(F)C(F)(F)C(F)(F)C(F)(F)C(F)(F)C(F)(F)C(F)F obs_value=inactive
compound=O=C(O)C(F)(F)C(F)(F)C(F)(F)C(=O)O obs_value=inactive
compound=Cc1ccc(S(=O)(=O)C(I)I)cc1 obs_value="2.67 µM (active)"
compound=O=C1c2c(O)ccc(Nc3ccc(CCO)cc3)c2C(=O)c2c([N+](=O)[O-])ccc(O)c21 obs_value=inactive

Supply reported AC50 belonging to this compound: "O=C(O)C(F)(F)OC(F)(F)C(F)(F)OC(F)(F)C(F)(F)OC(F)(F)F"
inactive

Supply reported AC50 belonging to this compound: CC(C)CCCC(C)CCO (stereo not given)
32.5 µM (active)

Supply reported AC50 belonging to this compound: "Nc1cc([N+](=O)[O-])cc(Cl)c1O"
inactive

Supply reported AC50 belonging to this compound: "CC(C)(C)c1cc(CCC(=O)NCCCCCCNC(=O)CCc2cc(C(C)(C)C)c(O)c(C(C)(C)C)c2)cc(C(C)(C)C)c1O"
inactive

Source listed as PubChem BioAssay (EPA / NIEHS).
